- PROCEDURE_TEXT: Cytotoxicity in RT-qPCR assay (Cp of housekeeping gene β-actin)
- Type: cell-based
- CONDITION_NOTES: African green monkey, RT-qPCR serotype 1 TC974#666, Protocol A

{"MOLECULE": "COc1cc(NC(C(=O)c2c[nH]c3cc(OC)c(C(F)(F)F)cc23)c2ccc(F)cc2OC)cc(OCCO)c1 (single isomer, unassigned) [Compound 2A]", "CC50 at 3 days": "> 2500 nM"}
{"MOLECULE": "COc1cc(NC(C(=O)c2c[nH]c3c(C)cc(C(F)(F)F)cc23)c2ccc(Cl)cc2OC)cc(OCCO)c1 (single isomer, unassigned) [Compound 12A]", "CC50 at 3 days": "> 2500 nM"}
{"MOLECULE": "COc1cc(NC(C(=O)c2c[nH]c3ccc(C(F)(F)F)cc23)c2ccc(F)cc2OC)cc(OCCO)c1 (single isomer, unassigned) [Compound 1B]", "CC50 at 3 days": "3300 nM"}
{"MOLECULE": "COc1cc(NC(C(=O)c2c[nH]c3ccc(C(F)(F)F)cc23)c2ccc(Cl)cc2OC)cc(OCCO)c1 (single isomer, unassigned) [Compound 9B]", "CC50 at 3 days": "> 2000 nM"}
{"MOLECULE": "COc1cc(NC(C(=O)c2c[nH]c3cc(F)c(OC(F)(F)F)cc23)c2ccc(F)cc2OC)cc(OCCO)c1 (single isomer, unassigned) [Compound 7B]", "CC50 at 3 days": "> 2500 nM"}
{"MOLECULE": "COc1cc(NC(C(=O)c2c[nH]c3ccc(OC(F)(F)F)cc23)c2ccc(Cl)cc2OC)cc(OCCO)c1 (single isomer, unassigned) [Compound 13A]", "CC50 at 3 days": "1200 nM"}

----------
Catalogue of CC50 at 3 days values
- PROCEDURE_TEXT: Cytotoxicity in RT-qPCR assay (Cp of housekeeping gene β-actin)
- Format: cell-based
- CONDITION_NOTES: African green monkey, RT-qPCR serotype 2 16681, Protocol A
PROPERTY_NAME: CC50 at 3 days

{"MOLECULE": "COc1cc(NC(C(=O)c2c[nH]c3c(C)cc(C(F)(F)F)cc23)c2ccc(Cl)cc2OC)cc(OCCO)c1 (single isomer, unassigned) [Compound 12A]", "PROPERTY_NAME": "CC50 at 3 days", "RESULT": "> 2500 nM"}
{"MOLECULE": "COc1cc(NC(C(=O)c2c[nH]c3cc(F)c(OC(F)(F)F)cc23)c2ccc(Cl)cc2OC)cc(OCCO)c1 (single isomer, unassigned) [Compound 15B]", "PROPERTY_NAME": "CC50 at 3 days", "RESULT": "> 2100 nM"}
{"MOLECULE": "COc1cc(NC(C(=O)c2c[nH]c3c(C)cc(C(F)(F)F)cc23)c2ccc(F)cc2OC)cc(OCCO)c1 (single isomer, unassigned) [Compound 4B]", "PROPERTY_NAME": "CC50 at 3 days", "RESULT": "> 2400 nM"}

----------
- PROCEDURE_TEXT: Cytotoxicity in RT-qPCR assay (Cp of housekeeping gene β-actin)
- Format: cell-based
- CONDITION_NOTES: African green monkey, RT-qPCR serotype 4 H241, Protocol A
Attribute: CC50 at 3 days
PROPERTY_NAME: CC50 at 3 days

{"COMPOUND": "COc1cc(NC(C(=O)c2c[nH]c3c(C)cc(OC(F)(F)F)cc23)c2ccc(Cl)cc2OC)cc(OCCO)c1 (single isomer, unassigned) [Compound 16A]", "PROPERTY_NAME": "CC50 at 3 days", "RESULT": "> 2000 nM"}
{"COMPOUND": "COc1cc(NC(C(=O)c2c[nH]c3c(C)cc(C(F)(F)F)cc23)c2ccc(Cl)cc2OC)cc(OCCO)c1 (single isomer, unassigned) [Compound 12A]", "PROPERTY_NAME": "CC50 at 3 days", "RESULT": "> 2400 nM"}
{"COMPOUND": "COc1cc(NC(C(=O)c2c[nH]c3cc(F)c(C(F)(F)F)cc23)c2ccc(F)cc2OC)cc(OCCO)c1 (single isomer, unassigned)", "PROPERTY_NAME": "CC50 at 3 days", "RESULT": "> 2500 nM"}
{"COMPOUND": "COc1cc(NC(C(=O)c2c[nH]c3cc(OC)c(C(F)(F)F)cc23)c2ccc(F)cc2OC)cc(OCCO)c1 (single isomer, unassigned)", "PROPERTY_NAME": "CC50 at 3 days", "RESULT": "> 2100 nM"}
{"COMPOUND": "COc1cc(NC(C(=O)c2c[nH]c3c(C)cc(C(F)(F)F)cc23)c2ccc(F)cc2OC)cc(OCCO)c1 (single isomer, unassigned)", "PROPERTY_NAME": "CC50 at 3 days", "RESULT": "> 2100 nM"}
{"COMPOUND": "COc1cc(NC(C(=O)c2c[nH]c3ccc(C(F)(F)F)cc23)c2ccc(F)cc2OC)cc(OCCO)c1 (single isomer, unassigned)", "PROPERTY_NAME": "CC50 at 3 days", "RESULT": "2600 nM"}
{"COMPOUND": "COc1cc(NC(C(=O)c2c[nH]c3ccc(C(F)(F)F)cc23)c2ccc(Cl)cc2OC)cc(OCCO)c1 (single isomer, unassigned)", "PROPERTY_NAME": "CC50 at 3 days", "RESULT": "2700 nM"}
{"COMPOUND": "COc1cc(NC(C(=O)c2c[nH]c3ccc(OC(F)(F)F)cc23)c2ccc(Cl)cc2OC)cc(OCCO)c1 (single isomer, unassigned) [Compound 13A]", "PROPERTY_NAME": "CC50 at 3 days", "RESULT": "> 2500 nM"}
{"COMPOUND": "COc1cc(NC(C(=O)c2c[nH]c3cc(F)c(OC(F)(F)F)cc23)c2ccc(Cl)cc2OC)cc(OCCO)c1 (single isomer, unassigned) [Compound 15B]", "PROPERTY_NAME": "CC50 at 3 days", "RESULT": "1600 nM"}

----------
- PROCEDURE_TEXT: Cytotoxicity in RT-qPCR assay (Cp of housekeeping gene β-actin)
- Assay type: cell-based
- CONDITION_NOTES: African green monkey, RT-qPCR serotype 2 16681, Protocol A

{"MOLECULE": "COc1cc(NC(C(=O)c2c[nH]c3cc(F)c(C(F)(F)F)cc23)c2ccc(Cl)cc2OC)cc(OCCO)c1 (single isomer, unassigned) [Compound 11A]", "CC50 at 3 days": "> 2500 nM"}
{"MOLECULE": "COc1cc(NC(C(=O)c2c[nH]c3c(C)cc(OC(F)(F)F)cc23)c2ccc(Cl)cc2OC)cc(OCCO)c1 (single isomer, unassigned) [Compound 16A]", "CC50 at 3 days": "> 2500 nM"}
{"MOLECULE": "COc1cc(NC(C(=O)c2c[nH]c3cc(F)c(OC(F)(F)F)cc23)c2ccc(F)cc2OC)cc(OCCO)c1 (single isomer, unassigned)", "CC50 at 3 days": "> 2500 nM"}
